System: HOP-92 NSCLC
Assay: NCI-60 one-dose screen, 48 h (100 = growth as untreated, 0 = no growth, -100 = all killed)
Settings: 10 µM unless noted
This is part of a sample that, as a whole, favours compounds with a hit. Of some 83,000 tested, about 20% had one in any assay. Activity calls are given as the source filed them. The calls were made as follows: active = growth percent below 10; inactive = the rest.
Item-by-item account of growth

These solved cases illustrate the format of a correct answer.
# Compound, Value Reported
records = [
    ("Cc1ccc(N2CCN(C(=S)c3cccs3)CC2)cc1", "74.8% (inactive)"),
    ("O=C1NC(=Nc2ccc(Cl)cc2)S/C1=C\\c1cn(-c2ccccc2)nc1-c1ccccc1", "-0.936% (active)"),
]

Could you now consider this next compound?
Q: What growth value was documented for this compound, N#CCN1C(=O)C2C3=C(CCCC3)SC2N=C1CN1CCCC1 (stereo not drawn) ?
Result: -1.97% (active)
